The reported measurements were obtained from PubChem BioAssay (NCATS).

# target_under_test: Cytochrome P450 3A4 (Homo sapiens)
# assay: qHTS Assay for Inhibitors and Substrates of Cytochrome P450 3A4 (AID 884); further: nearly all actives have a fitted effect of over 50% in size; further: potency means the concentration at half of the fitted maximal effect
# test_conditions: recombinant CYP3A4, Luciferin-PPXE luminescence; series mostly up to 57.1 µM
Results filed as inconclusive are left out. Active and inactive are the calls of the source. The call rests on the fitted dose curve; in most records, active means well fitted inhibition curve with a large enough effect; inconclusive means small, poorly fitted or top-dose-only effect; inactive means no such curve, though single readings can be large or run the other way.
reported_property: Potency

Field: example entries. Status: answers known.
CC(=O)Oc1c(-c2ccccc2)oc2c(CC=C(C)C)c3c(c(OC(C)=O)c2c1=O)C=CC(C)(C)O3: 10 µM (active)
COC(=O)[C@H](Cc1ccccc1)NC(=O)[C@@]1(C)C[C@@H]1[C@@H](NC(=O)OCc1ccccc1)c1ccccc1: 2 µM (active)
COC(=O)c1ccc(C(NC(=O)OCc2ccccc2)/C(=C/[C@@H](C)C(=O)NCc2ccc(C)o2)c2cccnc2)cc1 (stereo partly drawn): 15.8 µM (active)
CC(=O)N1CC=CC1(CC(C)C)C(=O)O (stereo not drawn): inactive

Exercise: Form field: reported Potency of Nc1nc2c(ncn2C2CC(O)C(CO)O2)c(=O)[nH]1 (stereo not drawn)
Solution: inactive

Exercise: Moving on to `COC(=O)[C@@H]1C[C@H]2CC[C@H](O)C[C@H]2N1Cc1ccccc1OS(=O)(=O)c1ccc(C)cc1`
Solution: 2 µM (active)

Exercise: Moving on to CNC(=O)C1(CC(C)C)C=CCN1C(C)=O (stereo not drawn)
Solution: inactive

Exercise: Moving on to `CO[C@H]1COC(=O)C/C=C\[C@H](C)[C@@H](NS(=O)(=O)c2ccc(C)cc2)COC(=O)CCC[C@@H]1C`
Solution: 3.98 µM (active)
